# Test system: Saccharomyces cerevisiae;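 further: PSI is a weighted mean of sequencing reads over stability bins, variants kept only with over 10 reads, mCherry proximal and sfGFP distal, peptide attached via GGGS linker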
# experiment.notes: protein stability index of tFT-peptide fusion (C-terminal peptide) (PSI (0-1 scale)); higher = more stable (slower turnover)
# run.parameters: genetic background: doa10 deletion; temperature: 30 C
measure.name: protein stability index

> print(dat)
    input.sequence                 tested.on  recorded.number
 1    SSRRVVLPLLVA  Saccharomyces cerevisiae            0.123
 2    SGWGGGTWVKMG  Saccharomyces cerevisiae            0.113
 3    AWVEVYVISIGV  Saccharomyces cerevisiae            0.132
 4    GLRFFVSSLLCR  Saccharomyces cerevisiae            0.377
 5    AFFRCKCYVGTP  Saccharomyces cerevisiae            0.512
 6    ACGGGSNVHRAG  Saccharomyces cerevisiae            0.662
 7    DFWMLLFGIIFA  Saccharomyces cerevisiae            0.387
 8    VIGLLSYFLVYL  Saccharomyces cerevisiae            0.438
 9    LAVFSSPELSFP  Saccharomyces cerevisiae             0.66
10    HINRTIWARYQV  Saccharomyces cerevisiae            0.156
11    IWVVIISDSRVG  Saccharomyces cerevisiae            0.247
12    LLLLFPSPLFIR  Saccharomyces cerevisiae            0.553
13    RYLCLTPALYLS  Saccharomyces cerevisiae            0.125
14    FCRLTFCFFAFL  Saccharomyces cerevisiae            0.446
15    LGRVSAKFFCVL  Saccharomyces cerevisiae             0.13
16    LFVFTYPFLSWL  Saccharomyces cerevisiae            0.552
17    GGGWCVWMVWFG  Saccharomyces cerevisiae             0.23
18    LFVVHCFLSVSS  Saccharomyces cerevisiae           0.0415
19    CAGLLSVSFWLF  Saccharomyces cerevisiae            0.351
20    RPPPAANFTRSS  Saccharomyces cerevisiae            0.665
21    PHSMRTTTIMCS  Saccharomyces cerevisiae            0.214
22    NSCHFYSRFYLA  Saccharomyces cerevisiae            0.243
23    LVLELYRFARFG  Saccharomyces cerevisiae             0.27
24    WFCCAQRGVIVG  Saccharomyces cerevisiae            0.311
25    SFLVFLYFFMVF  Saccharomyces cerevisiae            0.316
26    FFCLVEVFVGVF  Saccharomyces cerevisiae            0.089
27    VYRILFWFLCFG  Saccharomyces cerevisiae            0.454
28    AFVALCACVIFV  Saccharomyces cerevisiae            0.178
29    YCLSCLAKASLM  Saccharomyces cerevisiae            0.164
30    MFWKFVFRGFWF  Saccharomyces cerevisiae            0.221
31    LCLLPVCLWDVG  Saccharomyces cerevisiae            0.453
32    TDFICLLWLLHW  Saccharomyces cerevisiae            0.386
33    EYGLLLTLLAYY  Saccharomyces cerevisiae            0.299
34    LMWVFPRVVWLY  Saccharomyces cerevisiae           0.0838
35    WSNICFWCGVWS  Saccharomyces cerevisiae            0.356
36    PVPPSLLHRPPF  Saccharomyces cerevisiae            0.677
37    FWFLWAKMLLSC  Saccharomyces cerevisiae           0.0958
38    LLVFSLLYPCLV  Saccharomyces cerevisiae            0.241
39    VCWCVVVLEFGL  Saccharomyces cerevisiae            0.168
40    FCDFLFVFPLFS  Saccharomyces cerevisiae            0.589
41    FFSFLFLLLFGA  Saccharomyces cerevisiae            0.555
42    IRVLACFLFAVS  Saccharomyces cerevisiae            0.095
43    YFFFLFFLLPPF  Saccharomyces cerevisiae            0.416
44    LVLFVVGGWVSL  Saccharomyces cerevisiae            0.279
45    GREGETGSKAGR  Saccharomyces cerevisiae             0.64
46    VCFFSSSCFLLV  Saccharomyces cerevisiae            0.463
47    WWDCAVWVRCGG  Saccharomyces cerevisiae            0.407
48    PFAFLSLVLLLP  Saccharomyces cerevisiae            0.383
49    CRAAMYSFFLNF  Saccharomyces cerevisiae            0.236
50    YLFFHMVVLVVV  Saccharomyces cerevisiae           0.0943
51    GCLGYTLSCFTY  Saccharomyces cerevisiae            0.519
52    GGSGGVSWRRVV  Saccharomyces cerevisiae            0.223
53    VCNYRKLIWKHH  Saccharomyces cerevisiae           0.0622
54    GLLGRCPVVVFG  Saccharomyces cerevisiae            0.216
55    GVAVVWVGLGVT  Saccharomyces cerevisiae            0.227
56    ARWGVGLWRGAS  Saccharomyces cerevisiae            0.282
57    FPWGRIFLRLRT  Saccharomyces cerevisiae            0.545
58    TLLMVSMTVRPL  Saccharomyces cerevisiae             0.26
59    VVLCQVCVLWGW  Saccharomyces cerevisiae            0.148
60    PRHLTPPPAPSA  Saccharomyces cerevisiae             0.66
61    VISGFVLVFRVR  Saccharomyces cerevisiae            0.379
62    RVGWVVVLGCVG  Saccharomyces cerevisiae            0.366
63    VCLVFVVRPCIR  Saccharomyces cerevisiae            0.401
64    QCSVRLKEIQFS  Saccharomyces cerevisiae            0.209
65    DLFVFFVFHFFL  Saccharomyces cerevisiae            0.377
66    ALLMVCFGFSLV  Saccharomyces cerevisiae            0.335
67    GCVVLNTVAFIC  Saccharomyces cerevisiae            0.108
68    GFFCVWSLLFFN  Saccharomyces cerevisiae            0.218
69    CWILLFGCVWVG  Saccharomyces cerevisiae            0.221
70    GPILVWVMADWG  Saccharomyces cerevisiae            0.293
71    WQSFRDKLIKGN  Saccharomyces cerevisiae            0.188
72    FFLFLFFFLRGS  Saccharomyces cerevisiae            0.419
73    RLIARFKILRCI  Saccharomyces cerevisiae           0.0618
74    RLPYSLTFFLLC  Saccharomyces cerevisiae           0.0729
75    GAVGRWGWVSFV  Saccharomyces cerevisiae            0.337
76    IRDGPWKRVLVV  Saccharomyces cerevisiae            0.125
77    GLVCPWLIVRFV  Saccharomyces cerevisiae            0.161
78    GSLHWVMVFAVP  Saccharomyces cerevisiae            0.493
79    LLVYLYFFFSCS  Saccharomyces cerevisiae            0.241
80    GRGGLRVVVWLV  Saccharomyces cerevisiae             0.11
81    CPVSRHLLVLYW  Saccharomyces cerevisiae            0.402
82    CVILVSFFCYSA  Saccharomyces cerevisiae            0.119
